Values compiled from ChEMBL document CHEMBL1201862.

# Tested on: NCI-H23
# test method notes: NCI tumour cell line growth inhibition, 48 h
The source made the active and inactive calls. No stated cut-off is given here; in the data, active = GI50 up to about 1.1 µM and inactive = higher.
Each record here notes measured GI50.

Ask: Indicate its recorded GI50; the molecule in question is Cn1c2ccccc2c(=NNc2cccc(C(=O)O)c2)c2ccccc21
Reply: 9.95 µM (inactive)

Ask: Given the molecule C#CC(O)Cc1ccc(OC)c2occc12 (stereo not drawn) , write its reported GI50.
Reply: > 100 µM (inactive)

Ask: Specify reported GI50 for the molecule shown: CCc1cccc(C(C)C)c1NC(=O)C(=O)C1C(=O)Nc2ccccc2[S+]1[O-] (stereo not drawn)
Reply: > 100 µM (inactive)

---

# Tested on: KM12
# test method notes: NCI tumour cell line growth inhibition, 48 h
Activity calls are given as the source filed them. No stated cut-off is given here; in the data, active = GI50 up to about 1.1 µM and inactive = higher.
# reported GI50; entries follow

Previously resolved entries follow.
molecule: O=C(N/N=C\c1ccc2ccccc2c1)Nc1ccc([N+](=O)[O-])cc1
readout value: 33.4 µM (inactive)
--
molecule: Cc1ccc(S(=O)(=O)NC(=O)N[C@@H](Cc2c[nH]cn2)C(=O)O)cc1
readout value: > 100 µM (inactive)
--
molecule: NC(=S)/N=C(/c1nc2ccc(Cl)cc2nc1O)C(O)c1ccccc1Cl (centres undefined)
readout value: > 100 µM (inactive)

Ask: Quote GI50 with test system KM12 for CC1(C)[C@@H](Cn2cnc3c(O)nc(N)nc32)CC[C@@]1(C)CO
Reply: > 100 µM (inactive)
